Assay: Bioavailability assay in rats, Experiment II (dihydrobromide)
Type: in vivo
Conditions: both sexes, rat, plasma; Wistar rats, 20 mg/kg tail intravenous injection
Endpoint Label: Cmax (ng/mL)
The answer is to be given in ng/mL; state only the numeric part.

Q. Can you look up the measured Cmax of Br.Br.COCCOc1cc2ncnc(Nc3ccc(F)c(Cl)c3)c2cc1NC(=O)C=C1CCN(CCOC)CC1 for me?
A. 3240

###

Experiment: Bioavailability assay in rats, Experiment II (dihydrobromide)
Format: in vivo
Details: both sexes, rat, plasma; Wistar rats, 20 mg/kg tail intravenous injection
Endpoint Label: AUC(0-inf)

Q. Can you look up the measured AUC(0-inf) of Br.Br.COCCOc1cc2ncnc(Nc3ccc(F)c(Cl)c3)c2cc1NC(=O)C=C1CCN(CCOC)CC1 for me?
A. 13000 ng·h/mL

###

Experiment: Bioavailability assay in rats, Experiment IV (dimethylsulfonate)
Type: in vivo
Settings: both sexes, rat, plasma; SD rats, single intravenous injection of 5.0 mg/kg, n=6
Endpoint Label: Cmax (ng/mL)
The answer is to be given in ng/mL; state only the numeric part.

Q. Can you look up the measured Cmax of COCCOc1cc2ncnc(Nc3ccc(F)c(Cl)c3)c2cc1NC(=O)C=C1CCN(CCOC)CC1.CS(=O)(=O)O for me?
A. 1220

###

Assay: Bioavailability assay in rats, Experiment I (dihydrochloride)
Assay type: in vivo
Details: male, rat, plasma, oral; Wistar rats, 20 mg/kg ig, 4 h; read-out: Average Plasma Drug Concentration
Endpoint Label: concentration at 4 h (ng/mL)
The answer is to be given in ng/mL; state only the numeric part.

Q. Can you look up the measured concentration at 4 h of COCCOc1cc2ncnc(Nc3ccc(F)c(Cl)c3)c2cc1NC(=O)C=C1CCN(CCOC)CC1.Cl.Cl [Compound 2, dihydrochloride] for me?
A. 468

###

Assay: Bioavailability assay in rats, Experiment IV (dimethylsulfonate)
Assay type: in vivo
Conditions: both sexes, rat, plasma, po; SD rats, single intragastric administration of 5.0 mg/kg, n=6
Endpoint Label: AUC(0-inf) (ng·h/mL)
The answer is to be given in ng·h/mL; state only the numeric part.

Q. Can you look up the measured AUC(0-inf) of COCCOc1cc2ncnc(Nc3ccc(F)c(Cl)c3)c2cc1NC(=O)C=C1CCN(CCOC)CC1.CS(=O)(=O)O for me?
A. 902

###

Test: Bioavailability assay in rats, Experiment I (dihydrochloride)
Format: in vivo
Conditions: male, rat, plasma, oral; Wistar rats, 20 mg/kg ig, 18 h; read-out: Average Plasma Drug Concentration
Endpoint Label: concentration at 18 h (ng/mL)
The answer is to be given in ng/mL; state only the numeric part.

Q. Can you look up the measured concentration at 18 h of COCCOc1cc2ncnc(Nc3ccc(F)c(Cl)c3)c2cc1NC(=O)C=C1CCN(CCOC)CC1.Cl.Cl [Compound 2, dihydrochloride] for me?
A. 139

###

Assay: Bioavailability assay in rats, Experiment IV (dimethylsulfonate)
Type: in vivo
Conditions: both sexes, rat, plasma, po; SD rats, single intragastric administration of 5.0 mg/kg, n=6
Endpoint Label: AUC(0-t) (ng·h/mL)
The answer is to be given in ng·h/mL; state only the numeric part.

Q. Can you look up the measured AUC(0-t) of COCCOc1cc2ncnc(Nc3ccc(F)c(Cl)c3)c2cc1NC(=O)C=C1CCN(CCOC)CC1.CS(=O)(=O)O [Compound 3] for me?
A. 782

###

Experiment: Bioavailability assay in rats, Experiment I (dihydrochloride)
Type: in vivo
Conditions: male, rat, plasma, oral; Wistar rats, 20 mg/kg ig, 24 h; read-out: Average Plasma Drug Concentration
Endpoint Label: concentration at 24 h (ng/mL)
The answer is to be given in ng/mL; state only the numeric part.

Q. Can you look up the measured concentration at 24 h of COCCOc1cc2ncnc(Nc3ccc(F)c(Cl)c3)c2cc1NC(=O)C=C1CCN(CCOC)CC1.Cl.Cl [Compound 2, dihydrochloride] for me?
A. 72.4

###

Assay: Bioavailability assay in rats, Experiment I (dihydrochloride)
Format: in vivo
Conditions: male, rat, plasma; Wistar rats, 20 mg/kg iv, 3 h; read-out: Average Plasma Drug Concentration
From the text: Experiment I. Bioavailability Assay for N-[4-(3-chloro-4-fluorophenylamino)-7-(2-methoxyethoxy)quinazolin-6-yl]-2-[1-(2-methoxyethyl)piperidin-4-ylidene]acetamide Dihydrochloride in Rats 12 Wistar rats (male, weighing 200-220 g) were purchased from Beijing Vital River Laboratory Animal Technology Co., Ltd. License No.: SCXK (Beijing) 2007-0001. […]
Endpoint Label: concentration at 3 h (ng/mL)
The answer is to be given in ng/mL; state only the numeric part.

Q. Can you look up the measured concentration at 3 h of COCCOc1cc2ncnc(Nc3ccc(F)c(Cl)c3)c2cc1NC(=O)C=C1CCN(CCOC)CC1.Cl.Cl [Compound 2, dihydrochloride] for me?
A. 989

###

Assay: Bioavailability assay in rats, Experiment I (dihydrochloride)
Format: in vivo
Settings: male, rat, plasma; Wistar rats, 20 mg/kg iv, 0.5 h; read-out: Average Plasma Drug Concentration
Endpoint Label: concentration at 0.5 h (ng/mL)
The answer is to be given in ng/mL; state only the numeric part.

Q. Can you look up the measured concentration at 0.5 h of COCCOc1cc2ncnc(Nc3ccc(F)c(Cl)c3)c2cc1NC(=O)C=C1CCN(CCOC)CC1.Cl.Cl [Compound 2, dihydrochloride] for me?
A. 2700

###

Assay: Bioavailability assay in rats, Experiment I (dihydrochloride)
Assay type: in vivo
Details: male, rat, plasma, oral; Wistar rats, 20 mg/kg ig, 12 h; read-out: Average Plasma Drug Concentration
Endpoint Label: concentration at 12 h
Quick note: number first, unit second.

Q. Can you look up the measured concentration at 12 h of COCCOc1cc2ncnc(Nc3ccc(F)c(Cl)c3)c2cc1NC(=O)C=C1CCN(CCOC)CC1.Cl.Cl [Compound 2, dihydrochloride] for me?
A. 330 ng/mL

###

Experiment: Bioavailability assay in rats, Experiment IV (dimethylsulfonate)
Type: in vivo
Conditions: both sexes, rat, plasma; SD rats, single intravenous injection of 5.0 mg/kg, n=6
Protocol: Experiment IV Bioavailability Assay for N-[4-(3-chloro-4-fluorophenylamino)-7-(2-methoxyethoxy)quinazolin-6-yl]-2-[1-(2-methoxyethyl)piperidin-4-ylidene]acetamide Dimethylsulfonate in Rats […] The main pharmacokinetic parameters and oral bioavailability results were calculated by using DAS2.0 (statistical moment). […]
Endpoint Label: AUC(0-inf) (ng·h/mL)
The answer is to be given in ng·h/mL; state only the numeric part.

Q. Can you look up the measured AUC(0-inf) of COCCOc1cc2ncnc(Nc3ccc(F)c(Cl)c3)c2cc1NC(=O)C=C1CCN(CCOC)CC1.CS(=O)(=O)O [Compound 3] for me?
A. 1460

###

Test system: human non-small cell lung cancer cell line HCC827
Test: In vitro inhibitory action on human tumor cells, HCC827 (SRB)
Type: cell-based
Settings: SRB assay, usually 3 days
Endpoint Label: IC50 (nM)
The answer is to be given in nM; state only the numeric part.

Q. Can you look up the measured IC50 of COCCOc1cc2ncnc(Nc3ccc(F)c(Cl)c3)c2cc1NC(=O)C=C1CCN(CCOC)CC1.CS(=O)(=O)O for me?
A. 10

###

Target: EGFR (L858R/T790M) (Homo sapiens, UniProt P00533, L858R/T790M)
Sequence (P00533 25-1210 T790M/L858R): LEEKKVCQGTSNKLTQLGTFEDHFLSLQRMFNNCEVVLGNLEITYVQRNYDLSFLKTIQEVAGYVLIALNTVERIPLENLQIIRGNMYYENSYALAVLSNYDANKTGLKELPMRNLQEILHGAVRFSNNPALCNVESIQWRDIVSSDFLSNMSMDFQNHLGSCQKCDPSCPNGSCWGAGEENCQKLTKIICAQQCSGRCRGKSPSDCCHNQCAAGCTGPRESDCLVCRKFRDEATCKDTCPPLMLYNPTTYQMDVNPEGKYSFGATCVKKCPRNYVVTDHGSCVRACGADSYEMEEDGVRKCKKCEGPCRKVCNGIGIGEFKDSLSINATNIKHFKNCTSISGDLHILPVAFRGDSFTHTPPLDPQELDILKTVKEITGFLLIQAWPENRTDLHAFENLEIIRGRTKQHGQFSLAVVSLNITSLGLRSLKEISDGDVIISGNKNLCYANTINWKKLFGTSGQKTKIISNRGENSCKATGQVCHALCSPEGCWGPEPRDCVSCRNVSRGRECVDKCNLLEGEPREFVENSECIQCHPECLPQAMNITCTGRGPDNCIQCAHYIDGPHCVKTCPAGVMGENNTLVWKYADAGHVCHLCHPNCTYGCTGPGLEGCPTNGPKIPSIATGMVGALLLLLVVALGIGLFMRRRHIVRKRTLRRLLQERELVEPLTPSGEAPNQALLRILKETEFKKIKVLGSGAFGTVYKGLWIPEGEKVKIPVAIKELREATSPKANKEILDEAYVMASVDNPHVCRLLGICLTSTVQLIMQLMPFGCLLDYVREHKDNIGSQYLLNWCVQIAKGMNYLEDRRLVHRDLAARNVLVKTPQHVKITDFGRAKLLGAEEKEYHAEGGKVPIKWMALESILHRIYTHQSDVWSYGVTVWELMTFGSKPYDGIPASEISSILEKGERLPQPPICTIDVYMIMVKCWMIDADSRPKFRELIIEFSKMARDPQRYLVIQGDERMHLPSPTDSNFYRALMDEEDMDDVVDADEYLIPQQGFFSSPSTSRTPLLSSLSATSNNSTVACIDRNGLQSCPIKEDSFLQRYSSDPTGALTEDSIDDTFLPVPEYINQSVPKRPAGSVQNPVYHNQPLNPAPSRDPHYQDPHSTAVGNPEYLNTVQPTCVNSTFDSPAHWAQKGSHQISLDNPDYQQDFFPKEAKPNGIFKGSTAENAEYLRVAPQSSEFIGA
Test: Inhibitory action on tyrosine kinase activity of mutant EGFR (L858R/T790M), Caliper
Conditions: kinase 10 nM, ATP 19 μM, polypeptide 3 μM, 60 min
Endpoint Label: IC50 (nM)
The answer is to be given in nM; state only the numeric part.

Q. Can you look up the measured IC50 of COCCOc1cc2ncnc(Nc3ccc(F)c(Cl)c3)c2cc1NC(=O)C=C1CCN(CCOC)CC1 for me?
A. 266

Q. Please do the same for COCCOc1cc2ncnc(Nc3ccc(F)c(Cl)c3)c2cc1NC(=O)C=C1CCN(CCOC)CC1.CS(=O)(=O)O as well.
A. 235

###

Test: Bioavailability assay in rats, Experiment I (dihydrochloride)
Assay type: in vivo
Settings: male, rat, plasma; Wistar rats, 20 mg/kg iv
Description: Experiment I. Bioavailability Assay for N-[4-(3-chloro-4-fluorophenylamino)-7-(2-methoxyethoxy)quinazolin-6-yl]-2-[1-(2-methoxyethyl)piperidin-4-ylidene]acetamide Dihydrochloride in Rats 12 Wistar rats (male, weighing 200-220 g) were purchased from Beijing Vital River Laboratory Animal Technology Co., Ltd. License No.: SCXK (Beijing) 2007-0001. […]
Endpoint Label: AUC
Quick note: number first, unit second.

Q. Can you look up the measured AUC of COCCOc1cc2ncnc(Nc3ccc(F)c(Cl)c3)c2cc1NC(=O)C=C1CCN(CCOC)CC1.Cl.Cl [Compound 2] for me?
A. 12900 ng·h/mL
